Known remaining activity at 10 µM of a selection of compounds
# Tgt: IDO in A431 cells (Homo sapiens, UniProt P14902)
# Construct: endogenous in cells; host or cells: A431 cells, IFN-γ stimulated
# Method: IDO cell-based assay, kynurenine production in IFN-γ stimulated A431 cells
# Setup conditions: A-431, 24 h; final concentration of the compound 10 μM; rate relative to culture without compound
Counter-ions that a name gives are not always drawn.

>  <Compound>
Clc1cc(CSC2=NCN(CCc3ccccc3)CN2)c(CSC2=NCN(CCc3ccccc3)CN2)cc1Cl [Compound 37]

>  <remaining activity at 10 µM [%]>
1

$$$$
>  <Compound>
Clc1ccc(CCN2CN=C(SCc3ccc(Br)cc3CSC3=NCN(CCc4ccc(Cl)c(Cl)c4)CN3)NC2)cc1Cl [Compound 39]

>  <remaining activity at 10 µM [%]>
0

$$$$
>  <Compound>
N/C(=N\c1ccc(Br)cc1)SCc1cc(Cl)c(Cl)cc1CS/C(N)=N/c1ccc(Br)cc1 [Compound 135, dihydrobromide]

>  <remaining activity at 10 µM [%]>
12

$$$$
>  <Compound>
N#Cc1ccc(CNC(=O)Cc2ccccc2CSC(=N)N)cc1 [Compound 67, hydrobromide]

>  <remaining activity at 10 µM [%]>
36

$$$$

* * *

Known remaining activity at 10 µM of a selection of compounds
# Tgt: IDO in A431 cells (Homo sapiens)
# Construct: endogenous in cells; host or cells: A431 cells, IFN-γ stimulated
# Method: IDO cell-based assay, kynurenine production in IFN-γ stimulated A431 cells
# Setup conditions: A-431, 24 h; final concentration of the compound 10 μM; rate relative to culture without compound
Where a name gives a salt, the structure may show the parent alone.
Value kind: remaining activity at 10 µM (%)

>  <Compound>
N/C(=N\c1ccc(F)cc1F)SCc1ccc(F)cc1CS/C(N)=N/c1ccc(F)cc1F [Compound 130, dihydrobromide]

>  <Value kind>
remaining activity at 10 µM

>  <Readout value>
1

$$$$
>  <Compound>
N=C(N)SCc1ccccc1CC(=O)NCCc1ccc(Cl)c(Cl)c1 [Compound 70, hydrobromide]

>  <Value kind>
remaining activity at 10 µM

>  <Readout value>
98

$$$$
>  <Compound>
N=C(N)SCc1cc(Br)ccc1C(=O)NCc1ccc(Cl)cc1 [Compound 82, hydrobromide]

>  <Value kind>
remaining activity at 10 µM

>  <Readout value>
99

$$$$
>  <Compound>
Fc1ccc(CSC2=NCN(CCc3cccc(C(F)(F)F)c3)CN2)c(CSC2=NCN(CCc3cccc(C(F)(F)F)c3)CN2)c1

>  <Value kind>
remaining activity at 10 µM

>  <Readout value>
15

$$$$
>  <Compound>
Clc1cc(CSC2=NCN(CC3CCCCC3)CN2)c(CSC2=NCN(CC3CCCCC3)CN2)cc1Cl

>  <Value kind>
remaining activity at 10 µM

>  <Readout value>
4

$$$$
>  <Compound>
Fc1ccc(CN2CN=C(SCc3cc(Cl)c(Cl)cc3CSC3=NCN(Cc4ccc(F)c(Cl)c4)CN3)NC2)cc1Cl

>  <Value kind>
remaining activity at 10 µM

>  <Readout value>
8

$$$$
>  <Compound>
COc1ccc(CCN2CN=C(SCc3ccc(Br)cc3CSC3=NCN(CCc4ccc(OC)cc4)CN3)NC2)cc1

>  <Value kind>
remaining activity at 10 µM

>  <Readout value>
7

$$$$

* * *

Known remaining activity at 10 µM of a selection of compounds
# Tgt: rhIDO (recombinant human IDO) (Homo sapiens, UniProt P14902)
# Sequence (P14902 whole entry): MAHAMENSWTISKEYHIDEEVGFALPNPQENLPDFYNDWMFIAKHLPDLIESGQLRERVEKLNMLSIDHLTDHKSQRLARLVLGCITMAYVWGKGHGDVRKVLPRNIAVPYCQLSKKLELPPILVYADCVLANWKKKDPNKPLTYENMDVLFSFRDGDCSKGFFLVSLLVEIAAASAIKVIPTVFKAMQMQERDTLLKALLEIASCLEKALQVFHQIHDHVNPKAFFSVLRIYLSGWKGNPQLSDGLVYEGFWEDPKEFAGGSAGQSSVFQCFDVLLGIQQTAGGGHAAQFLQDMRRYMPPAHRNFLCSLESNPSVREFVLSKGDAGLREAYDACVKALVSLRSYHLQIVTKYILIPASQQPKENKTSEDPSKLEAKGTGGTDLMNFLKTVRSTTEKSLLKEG
# Method: Enzyme assay using rhIDO (rate of kynurenine production)
# Assay type: biochemical
# Setup conditions: 2 h; final concentration of the compound 10 μM; rate relative to reaction without compound; read-out: rhIDO-mediated kynurenine production
Counter-ions that a name gives are not always drawn.

>  <Compound>
FC(F)(F)c1ccc(CCN2CN=C(SCc3ccc(Br)cc3CSC3=NCN(CCc4ccc(C(F)(F)F)cc4)CN3)NC2)cc1 [Compound 141]

>  <Endpoint unit>
%

>  <remaining activity at 10 µM>
21

$$$$
>  <Compound>
N=C(N)SCc1ccccc1CC(=O)NCC1CC1 [Compound 71, hydrobromide]

>  <Endpoint unit>
%

>  <remaining activity at 10 µM>
87

$$$$
>  <Compound>
N/C(=N\c1ccc(F)c(Cl)c1)SCc1ccccc1CS/C(N)=N/c1ccc(F)c(Cl)c1 [Compound 122, dihydrobromide]

>  <Endpoint unit>
%

>  <remaining activity at 10 µM>
-3

$$$$
>  <Compound>
N=C(N)SCc1cc(Br)ccc1C(=O)NCc1ccc(F)c(Cl)c1 [Compound 116, hydrobromide]

>  <Endpoint unit>
%

>  <remaining activity at 10 µM>
85

$$$$
>  <Compound>
Fc1ccc(CN2CN=C(SCc3ccc(Br)cc3CSC3=NCN(Cc4ccc(F)c(Cl)c4)CN3)NC2)cc1Cl [Compound 144]

>  <Endpoint unit>
%

>  <remaining activity at 10 µM>
15

$$$$
>  <Compound>
N#Cc1ccc(CNC(=O)c2cc(Br)ccc2CS/C(N)=N/c2ccc(Br)cc2)cc1 [Compound 119, hydrobromide]

>  <Endpoint unit>
%

>  <remaining activity at 10 µM>
25

$$$$
>  <Compound>
Clc1cc(CSC2=NCN(CC3CCCCC3)CN2)c(CSC2=NCN(CC3CCCCC3)CN2)cc1Cl [Compound 50]

>  <Endpoint unit>
%

>  <remaining activity at 10 µM>
9

$$$$

* * *

# Tgt: TDO in A172 cells (Homo sapiens, UniProt P48775)
# Construct: endogenous in cells; host or cells: A172 cells
# Sequence (P48775 whole entry): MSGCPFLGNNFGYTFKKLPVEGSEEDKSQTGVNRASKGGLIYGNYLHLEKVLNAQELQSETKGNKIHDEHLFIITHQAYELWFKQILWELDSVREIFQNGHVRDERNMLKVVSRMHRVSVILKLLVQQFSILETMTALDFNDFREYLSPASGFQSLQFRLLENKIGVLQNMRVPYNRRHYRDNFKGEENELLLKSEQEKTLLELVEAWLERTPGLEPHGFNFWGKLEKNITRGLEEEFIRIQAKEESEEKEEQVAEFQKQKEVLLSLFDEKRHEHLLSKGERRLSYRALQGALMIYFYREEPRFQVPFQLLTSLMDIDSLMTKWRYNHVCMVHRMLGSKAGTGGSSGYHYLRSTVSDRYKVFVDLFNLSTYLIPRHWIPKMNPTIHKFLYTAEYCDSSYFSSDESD
# Method: TDO cell-based assay, kynurenine production in A172 cells
# Setup conditions: A 172; final concentration of the compound 10 μM; rate relative to culture without compound
Structures can show the parent of a compound that is named as a salt.
# note: exactly 20% is not below, so it is 0; use 1 for remaining activity at 10 µM strictly under it

>  <Compound>
COc1ccc(CN2CN=C(SCc3ccccc3CSC3=NCN(Cc4ccc(OC)cc4)CN3)NC2)cc1 [Compound 26]

>  <Category label>
1

$$$$
>  <Compound>
Br.Br.N=C(N)SCc1ccc(Cl)cc1CSC(=N)N [Compound 7, dihydrobromide]

>  <Category label>
1

$$$$
>  <Compound>
N=C(N)SCc1cc(Br)ccc1C(=O)NCC1CC1 [Compound 93, hydrobromide]

>  <Category label>
0

$$$$
>  <Compound>
N=C(N)[Se]Cc1ccc(Cl)cc1C[Se]C(=N)N [Compound 109, dihydrobromide]

>  <Category label>
0

$$$$
>  <Compound>
CNC(=O)Cc1ccccc1CS/C(N)=N/c1ccc(Br)cc1 [Compound 79, hydrobromide]

>  <Category label>
0

$$$$
>  <Compound>
Cc1ccc(CCN2CN=C(SCc3ccccc3CSC3=NCN(CCc4ccc(C)c(C)c4)CN3)NC2)cc1C [Compound 23]

>  <Category label>
1

$$$$
>  <Compound>
N=C(N)SCc1cc(Cl)c(Cl)cc1CSC(=N)N [Compound 36, dihydrobromide]

>  <Category label>
1

$$$$

* * *

# Tgt: rhIDO (recombinant human IDO) (Homo sapiens)
# Method: Enzyme assay using rhIDO (rate of kynurenine production)
# Assay type: biochemical
# Setup conditions: 2 h; final concentration of the compound 10 μM; rate relative to reaction without compound; read-out: rhIDO-mediated kynurenine production
Counter-ions that a name gives are not always drawn.
Known remaining activity at 10 µM of a selection of compounds
Value kind: remaining activity at 10 µM (%)

>  <Compound>
Cl.Cl.c1ccc(CCN2CN=C(SCc3cscc3CSC3=NCN(CCc4ccccc4)CN3)NC2)cc1 [Compound 33, dihydrochloride]

>  <Readout value>
37

$$$$
>  <Compound>
FC(F)(F)c1cccc(CCN2CN=C(SCc3cc(Cl)c(Cl)cc3CSC3=NCN(CCc4cccc(C(F)(F)F)c4)CN3)NC2)c1 [Compound 152]

>  <Readout value>
7

$$$$
>  <Compound>
Clc1ccc(CN2CN=C(SCc3ccccc3CSC3=NCN(Cc4ccc(Cl)cc4)CN3)NC2)cc1 [Compound 41]

>  <Readout value>
41

$$$$
>  <Compound>
Br.N#Cc1ccc(CNC(=O)c2ccc(Br)cc2CSC(=N)N)cc1 [Compound 76, hydrobromide]

>  <Readout value>
78

$$$$
>  <Compound>
Br.Br.N=C(N)SCc1ccsc1CSC(=N)N [Compound 31, dihydrobromide]

>  <Readout value>
11

$$$$
>  <Compound>
N#Cc1ccc(CNC(=O)c2cccc(Br)c2CSC(=N)N)cc1 [Compound 111, hydrobromide]

>  <Readout value>
17

$$$$
>  <Compound>
CNC(=O)c1ccc(C#N)cc1CS/C(N)=N/c1ccc(Br)cc1 [Compound 81, hydrobromide]

>  <Readout value>
81

$$$$
>  <Compound>
N/C(=N\c1ccc(Cl)cc1)SCc1cc(Cl)c(Cl)cc1CS/C(N)=N/c1ccc(Cl)cc1 [Compound 123, dihydrobromide]

>  <Readout value>
-2

$$$$
>  <Compound>
Fc1ccc(CSC2=NCN(CC3CC3)CN2)c(CSC2=NCN(CC3CC3)CN2)c1 [Compound 120]

>  <Readout value>
41

$$$$
>  <Compound>
N/C(=N\c1ccc(F)cc1)SCc1cc(Cl)c(Cl)cc1CS/C(N)=N/c1ccc(F)cc1 [Compound 137, dihydrobromide]

>  <Readout value>
-3

$$$$
>  <Compound>
N/C(=N\c1cccc(Cl)c1)SCc1cc(Cl)c(Cl)cc1CS/C(N)=N/c1cccc(Cl)c1 [Compound 125, dihydrobromide]

>  <Readout value>
-2

$$$$
>  <Compound>
NC(=O)SCc1ccccc1CS/C(N)=N/c1ccc(F)c(Cl)c1 [Compound 59, hydrobromide]

>  <Readout value>
-3

$$$$
>  <Compound>
N=C(N)SCc1ccccc1CC(=O)NCCCCc1ccccc1 [Compound 72, hydrobromide]

>  <Readout value>
70

$$$$
>  <Compound>
N=C(N)SCc1ccccc1CC(=O)NCCc1ccc(Cl)cc1 [Compound 68, hydrobromide]

>  <Readout value>
82

$$$$
>  <Compound>
CNC(=O)c1cccnc1CSC(=N)N [Compound 100, hydrobromide]

>  <Readout value>
88

$$$$
>  <Compound>
N=C(N)SCc1cc(F)c(F)cc1CSC(=N)N [Compound 131, dihydrobromide]

>  <Readout value>
7

$$$$
